biological target: extracellular domain of human BLyS protein (hBLyS-ECD), His-tagged, Ala134-Leu285 (human, UniProt Q9Y275 134-285); test: cell-based or functional assay
Sequence (Q9Y275 134-285): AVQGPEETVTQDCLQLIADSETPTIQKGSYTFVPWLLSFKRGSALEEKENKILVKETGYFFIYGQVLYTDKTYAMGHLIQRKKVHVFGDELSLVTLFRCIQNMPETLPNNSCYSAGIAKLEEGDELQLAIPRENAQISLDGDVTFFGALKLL
Please go through the items and note down their OD450 nm (as headed), mouse B lymphocyte proliferation; antibody 100 nM.
Numbers only.

c93C6F10D3 (antibody, V domains shown) VH: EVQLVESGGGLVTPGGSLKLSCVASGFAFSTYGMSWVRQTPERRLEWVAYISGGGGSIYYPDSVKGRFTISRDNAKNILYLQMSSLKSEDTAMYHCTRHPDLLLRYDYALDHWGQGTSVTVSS VL: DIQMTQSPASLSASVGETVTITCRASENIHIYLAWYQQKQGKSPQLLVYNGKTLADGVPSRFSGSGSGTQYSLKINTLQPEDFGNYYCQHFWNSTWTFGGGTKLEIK    389
c8E7D9C7F5 (antibody, V domains shown, also called chimeric antibody c8E7D9C7F5) VH: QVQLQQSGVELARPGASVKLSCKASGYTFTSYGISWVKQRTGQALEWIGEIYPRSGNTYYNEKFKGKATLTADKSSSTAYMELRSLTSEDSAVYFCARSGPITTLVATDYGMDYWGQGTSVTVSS VL: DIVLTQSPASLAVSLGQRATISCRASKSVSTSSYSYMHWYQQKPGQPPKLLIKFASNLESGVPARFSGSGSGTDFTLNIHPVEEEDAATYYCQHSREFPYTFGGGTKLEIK    345
c67A2E1D10 (antibody, V domains shown) VH: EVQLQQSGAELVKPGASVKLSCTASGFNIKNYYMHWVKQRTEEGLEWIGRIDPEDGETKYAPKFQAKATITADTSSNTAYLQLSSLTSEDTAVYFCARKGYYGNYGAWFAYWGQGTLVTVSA VL: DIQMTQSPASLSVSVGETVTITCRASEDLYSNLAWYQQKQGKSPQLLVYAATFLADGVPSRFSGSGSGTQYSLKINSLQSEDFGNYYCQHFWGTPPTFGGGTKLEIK    1100

--- query ---
Please give the measured OD450 nm (as headed), mouse B lymphocyte proliferation; antibody 100 nM for this binder: c97A3C2H4 (antibody, V domains shown, also called chimeric antibody c97A3C2H4) VH: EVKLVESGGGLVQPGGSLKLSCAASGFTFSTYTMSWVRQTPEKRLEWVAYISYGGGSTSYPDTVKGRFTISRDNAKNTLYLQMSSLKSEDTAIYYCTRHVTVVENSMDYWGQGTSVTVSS VL: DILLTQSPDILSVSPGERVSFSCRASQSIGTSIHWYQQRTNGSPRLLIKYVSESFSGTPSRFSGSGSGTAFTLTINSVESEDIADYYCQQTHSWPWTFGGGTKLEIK 444
